Where do the numbers come from? From ChEMBL document CHEMBL4406845.

biological target: Alpha amylase (Homo sapiens, UniProt P0DUB6); experiment: Inhibition of alpha-amylase (unknown origin) using starch as substrate preincubated for 10 mins followed by substrate addition and measured after 10 mins by dinitrosalicylic acid reagent based assay
observed_property: IC50 (µM)

Solved cases (5 shown):
* Nc1cc(C(=O)n2nnc3ccccc32)ccc1Cl | 4.28
* O=C(c1ccccc1)n1nnc2ccccc21 | 5.38
* O=C(Cn1nnc2ccccc21)c1ccc(Cl)cc1 | 2.41
* Cc1cccc(C(=O)n2nnc3ccccc32)c1 | 4.3
* O=C(c1ccc(Br)cc1)n1nnc2ccccc21 | 3.13

P: Cc1cc2nnn(CC(=O)c3ccccc3O)c2cc1C
Q: O=C(Cn1nnc2ccccc21)c1ccc(-c2ccccc2)cc1
Query: Field: lower recorded IC50 (choose P or Q ) Choose, then provide that item's label.
Reply: P

###

target: Alpha amylase (Homo sapiens, UniProt P0DUB6); test: Inhibition of alpha-amylase (unknown origin) using starch as substrate preincubated for 10 mins followed by substrate addition and measured after 10 mins by dinitrosalicylic acid reagent based assay
observed_property: IC50 (µM)

1: O=C(Cn1nnc2ccccc21)c1ccccc1
2: Cc1cc2nnn(CC(=O)c3ccc(Cl)cc3)c2cc1C
3: Cc1cc2nnn(C(=O)c3ccccc3)c2cc1C
Query: Take the compounds listed above and rank them by IC50; the top slot goes to the highest value. I'd appreciate it if you listed the labels in the requested order.
Reply: 1, 3, 2

1: O=C(Cn1nnc2ccccc21)c1cccc(Cl)c1Cl
2: CCCCOc1ccc(C(=O)n2nnc3ccccc32)cc1
Query: So which one has the bigger IC50 here, 1 or 2 ? Provide the label of your selected option as the answer.
Reply: 2
(2: 5.4 µM, 1: 3.51 µM)

1: O=C(Cn1nnc2ccccc21)c1ccccc1O
2: COc1ccc(C(=O)n2nnc3ccccc32)cc1
Query: Which one would you say has the larger IC50 value: 1 , or 2 ? Reply briefly: the label of your chosen item.
Reply: 1
(1: 4.9 µM, 2: 2.98 µM)

###

biological target: Alpha glucosidase (Homo sapiens, UniProt O43451+P10253+P14410+Q2M2H8); test: Inhibition of alpha-glucosidase (unknown origin); format: protein assay
observed_property: IC50 (µM)

Please review the following examples before continuing.
• COc1ccc(C(=O)n2nnc3ccccc32)cc1 = 2.99
• O=C(c1ccccc1)n1nnc2cc(Cl)c(Cl)cc21 = 3.7
• O=C(c1ccc([N+](=O)[O-])cc1)n1nnc2ccccc21 = 2.97

I: O=C(Cn1nnc2ccccc21)c1cccc(Cl)c1Cl
II: O=C(c1ccccc1)n1nnc2ccccc21
III: Cc1cc2nnn(CC(=O)c3ccc(Cl)c(Cl)c3)c2cc1C
Query: Rank the 3 molecules: largest IC50 first, smallest last. Returns: the labels arranged in the requested order.
Reply: II, I, III

1: Cc1ccc(C(=O)n2nnc3cc(Cl)c(Cl)cc32)cc1C
2: O=C(Cn1nnc2ccccc21)c1ccc(Cl)cc1
3: CCCCOc1ccc(C(=O)n2nnc3ccccc32)cc1
Query: Returns the items ordered by IC50, from maximum to minimum. Show the ranking through the labels, in the order asked for.
Reply: 3, 1, 2

I: O=C(c1ccc(F)cc1)n1nnc2ccccc21
II: Cc1ccc(C(=O)n2nnc3ccccc32)cc1C
Query: When I and II are compared, which has the higher number for IC50? Answer format: the label of the selected item.
Reply: II

###

molecular target: Alpha amylase (Homo sapiens, UniProt P0DUB6); test: Inhibition of alpha-amylase (unknown origin) using starch as substrate preincubated for 10 mins followed by substrate addition and measured after 10 mins by dinitrosalicylic acid reagent based assay
observed_property: IC50 (µM)

* COc1ccc(C(=O)Cn2nnc3cc(C)c(C)cc32)cc1 | 2.51

I: COc1ccccc1C(=O)n1nnc2ccccc21
II: O=C(c1ccc(F)cc1)n1nnc2ccccc21
Query: Of I and II , which shows the smaller IC50 value? Let me know the label of the one you choose.
Reply: II
(II: 2.8 µM, I: 4.77 µM)

a: COc1ccc(C(=O)Cn2nnc3ccccc32)cc1
b: O=C(c1cccc(Cl)c1)n1nnc2cc(Cl)c(Cl)cc21
c: Cc1cc2nnn(CC(=O)c3ccc(Cl)c(Cl)c3)c2cc1C
Query: Please give the order of these compounds when sorted by IC50, largest value leading. Rank them, then answer with their labels in that order.
Reply: a, b, c

###

biological target: Alpha glucosidase (Homo sapiens, UniProt O43451+P10253+P14410+Q2M2H8); assay: Inhibition of alpha-glucosidase (unknown origin); assay type: protein assay
observed_property: IC50 (µM)

• Cc1cc(C(=O)n2nnc3ccccc32)cc(C)c1C = 4.23

A: Cc1cccc(C(=O)n2nnc3ccccc32)c1
B: Cc1cc2nnn(CC(=O)c3ccc(Cl)cc3)c2cc1C
Query: Smaller IC50 value? Options are A and B Please indicate the selected item by its label.
Reply: B
(B: 2.21 µM, A: 4.42 µM)

I: Cc1cc2nnn(C(=O)c3ccccc3)c2cc1C
II: O=C(Cn1nnc2ccccc21)c1ccc(-c2ccccc2)cc1
Query: Which numeric IC50 is bigger, that of I or that of II ? Select an item and report its label.
Reply: II

###

Molecular target: Alpha amylase (Homo sapiens, UniProt P0DUB6)
Sequence (P0DUB6 whole entry): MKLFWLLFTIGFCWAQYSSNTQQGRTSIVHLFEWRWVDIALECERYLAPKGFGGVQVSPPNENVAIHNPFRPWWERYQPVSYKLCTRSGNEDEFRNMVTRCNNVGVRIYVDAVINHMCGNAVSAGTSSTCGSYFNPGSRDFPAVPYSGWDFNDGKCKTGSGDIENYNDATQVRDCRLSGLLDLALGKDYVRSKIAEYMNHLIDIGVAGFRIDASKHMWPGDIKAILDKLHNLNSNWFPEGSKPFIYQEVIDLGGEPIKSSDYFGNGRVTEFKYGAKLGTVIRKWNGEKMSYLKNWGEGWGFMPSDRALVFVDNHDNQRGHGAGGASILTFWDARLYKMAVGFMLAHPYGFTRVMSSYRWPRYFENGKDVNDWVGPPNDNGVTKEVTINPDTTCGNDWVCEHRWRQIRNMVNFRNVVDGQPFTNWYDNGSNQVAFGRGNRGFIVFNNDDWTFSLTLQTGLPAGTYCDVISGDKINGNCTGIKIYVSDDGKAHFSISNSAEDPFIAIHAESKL
Experiment: Inhibition of alpha-amylase (unknown origin) using starch as substrate preincubated for 10 mins followed by substrate addition and measured after 10 mins by dinitrosalicylic acid reagent based assay
observed_property: IC50 (µM)

• Cc1cc(C(=O)n2nnc3ccccc32)cc(C)c1C = 4.12
• Cc1cc(C(=O)n2nnc3ccccc32)ccc1[N+](=O)[O-] = 4.08
• O=C(c1ccccc1)n1nnc2cc(Cl)c(Cl)cc21 = 3.66
• O=C(c1c(F)cccc1F)n1nnc2ccccc21 = 5
• Cc1ccc(C(=O)n2nnc3cc(Cl)c(Cl)cc32)cc1C = 3.66
• Cc1ccc(C(=O)Cn2nnc3ccccc32)cc1 = 4.56
• O=C(Cn1nnc2ccccc21)c1ccc(Cl)c(Cl)c1 = 3.89
• Cc1cc2nnn(CC(=O)c3ccccc3)c2cc1C = 3.53
• O=C(c1ccc(F)c(F)c1Cl)n1nnc2ccccc21 = 5.72
• O=C(Cn1nnc2ccccc21)c1cccc(Br)c1 = 4.35
• O=C(c1ccc([N+](=O)[O-])cc1)n1nnc2ccccc21 = 2.92
• Cc1ccc(C(=O)n2nnc3ccccc32)cc1C = 4.73
• O=C(Cn1nnc2ccccc21)c1cccc([N+](=O)[O-])c1 = 4.02

###

target: Alpha glucosidase (Homo sapiens, UniProt O43451+P10253+P14410+Q2M2H8); assay: Inhibition of alpha-glucosidase (unknown origin); assay type: protein assay
observed_property: IC50 (µM)

• O=C(Cn1nnc2ccccc21)c1cccc([N+](=O)[O-])c1 = 4
• O=C(Cn1nnc2ccccc21)c1ccc(Cl)c(Cl)c1 = 3.9
• Cc1cc(C(=O)n2nnc3ccccc32)ccc1[N+](=O)[O-] = 4.1
• Cc1ccc(C(=O)Cn2nnc3ccccc32)cc1 = 4.78
• Nc1cc(C(=O)n2nnc3ccccc32)ccc1Cl = 4.32
• O=C(c1ccc(Br)cc1)n1nnc2ccccc21 = 3.2
• COc1ccccc1C(=O)n1nnc2ccccc21 = 4.79
• COc1ccc(C(=O)Cn2nnc3ccccc32)cc1 = 4.5
• Cc1cc2nnn(CC(=O)c3ccccc3)c2cc1C = 3.41
